Value source: ChEMBL document CHEMBL1136321

Tested on: A2780
Assay: In vitro cytotoxicity against A2780 (human ovarian cancer)
Type: functional, cell-based
pIC50: −log10 of the molar value.
pIC50: recorded values
assay endpoint: pIC50

* CC[C@@]1(OC(=O)Cc2cc(OC)c(OC)c(OC)c2)C(=O)OCc2c1cc1n(c2=O)Cc2c-1nc1ccccc1c2COC(=O)Cc1cc(OC)c(OC)c(OC)c1 | 7.17
* CC[C@@]1(O)C(=O)OCc2c1cc1n(c2=O)Cc2cc3ccccc3nc2-1 | 8.15
* CC[C@@]1(O)C(=O)OCc2c1cc1n(c2=O)Cc2cc3cc(OC(=O)COc4ccc(F)cc4)ccc3nc2-1 | 7.27
* CC[C@@]1(OC(=O)COc2ccc(OC)cc2)C(=O)OCc2c1cc1n(c2=O)Cc2cc3cc(OC(=O)COc4ccc(OC)cc4)ccc3nc2-1 | 7.06
* CC[C@@]1(OC(=O)COc2ccc(C#N)c(F)c2)C(=O)OCc2c1cc1n(c2=O)Cc2c-1nc1ccccc1c2COC(=O)COc1ccc(C#N)c(F)c1 | 8.00
* CC[C@@]1(OC(=O)COc2ccc(F)cc2)C(=O)OCc2c1cc1n(c2=O)Cc2cc3cc(OC(=O)COc4ccc(F)cc4)ccc3nc2-1 | 7.82

* * *

Test system: A2780
Assay: In vitro cytotoxicity against A2780 (human ovarian cancer)
Assay type: functional, cell-based
pIC50: −log10 of the molar value.
pIC50: recorded values
assay endpoint: pIC50

* CC[C@@]1(O)C(=O)OCc2c1cc1n(c2=O)Cc2cc3cc(OC(=O)COc4ccc(OC)cc4)ccc3nc2-1 | 7.19
* CC[C@@]1(OC(=O)COc2ccc(OC)cc2)C(=O)OCc2c1cc1n(c2=O)Cc2c-1nc1ccccc1c2COC(=O)COc1ccc(OC)cc1 | 7.15
* CC[C@@]1(O)C(=O)OCc2c1cc1n(c2=O)Cc2cc3c(CN(C)C)c(O)ccc3nc2-1 [TOPOTECAN] | 7.24

* * *

Test system: A2780
Assay: In vitro cytotoxicity against A2780 (human ovarian cancer)
Type: functional, cell-based
IC50: recorded values
assay endpoint: IC50 (nM)

* CC[C@@]1(O)C(=O)OCc2c1cc1n(c2=O)Cc2c-1nc1ccccc1c2COC(=O)COc1ccc(OC)cc1 | 9
* CC[C@@]1(OC(=O)COc2ccc(F)cc2)C(=O)OCc2c1cc1n(c2=O)Cc2c-1nc1ccccc1c2COC(=O)COc1ccc(F)cc1 | 58
* CC[C@@]1(O)C(=O)OCc2c1cc1n(c2=O)Cc2c-1nc1ccccc1c2COC(=O)COc1ccc(F)cc1 | 8
* CC[C@@]1(O)C(=O)OCc2c1cc1n(c2=O)Cc2c-1nc1ccccc1c2COC(=O)Cc1cc(OC)c(OC)c(OC)c1 | 61
